- assay-target: CA VII (hCA VII) (Homo sapiens, UniProt P43166)
- Construct: gene CA7; recombinant, obtained in-house as reported earlier
- Sequence (P43166 whole entry): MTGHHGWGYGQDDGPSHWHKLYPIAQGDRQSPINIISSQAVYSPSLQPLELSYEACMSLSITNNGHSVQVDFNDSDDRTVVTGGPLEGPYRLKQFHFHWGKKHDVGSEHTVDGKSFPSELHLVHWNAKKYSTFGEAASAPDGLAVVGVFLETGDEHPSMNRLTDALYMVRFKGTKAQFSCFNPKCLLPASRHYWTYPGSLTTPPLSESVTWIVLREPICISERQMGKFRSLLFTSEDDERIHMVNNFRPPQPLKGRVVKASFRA
- method: stopped-flow CO2 hydration assay, phenol red
- Format: biochemical
assay-metric: Ki (nM)

Before answering, review these 3 worked examples.
compound: COc1ccc(CNC(=N)Nc2ccc(S(N)(=O)=O)cc2)cc1
assay-value: 25.1
//
compound: N=C(NCc1ccccc1F)Nc1ccc(S(N)(=O)=O)cc1
assay-value: 44.9
//
compound: N=C(NCCOc1ccccc1)Nc1ccc(S(N)(=O)=O)cc1
assay-value: 8.7

[I] N=C(Nc1ccc(S(N)(=O)=O)cc1)N(Cc1ccccc1)Cc1ccccc1
[II] CCCCCCCCNC(=N)Nc1ccc(S(N)(=O)=O)cc1 [7l, 4-(3-octylguanidino)benzenesulfonamide]
[III] Cc1cccc(CN(C)C(=N)Nc2ccc(S(N)(=O)=O)cc2)c1
[IV] CCCCCCCCCCCCCCCCNC(=N)Nc1ccc(S(N)(=O)=O)cc1
IN: Ascending by Ki, please. To answer, write out the labels according to the requested order.
OUT: IV, III, II, I

[I] CC(NC(=N)Nc1ccc(S(N)(=O)=O)cc1)c1ccccc1 (centres unmarked)
[II] N=C(NCc1ccc(F)cc1)Nc1ccc(S(N)(=O)=O)cc1
IN: I'm curious whether I or II has the smaller Ki number. Which is it? Refer to your chosen item by its label in the answer.
OUT: I
(I: 1.1 nM, II: 15 nM)

[a] N=C(NCc1cccc(F)c1)Nc1ccc(S(N)(=O)=O)cc1
[b] N=C(Nc1ccc(S(N)(=O)=O)cc1)N1CCN(Cc2ccccc2)CC1
IN: Smaller Ki value, a vs b ? Your choice should be expressed through its label.
OUT: b
(b: 0.06 nM, a: 60.7 nM)

----------
- assay-target: CA I (hCA I) (Homo sapiens)
- Construct: gene CA1; recombinant, obtained in-house as reported earlier
- Sequence (P00915 2-261): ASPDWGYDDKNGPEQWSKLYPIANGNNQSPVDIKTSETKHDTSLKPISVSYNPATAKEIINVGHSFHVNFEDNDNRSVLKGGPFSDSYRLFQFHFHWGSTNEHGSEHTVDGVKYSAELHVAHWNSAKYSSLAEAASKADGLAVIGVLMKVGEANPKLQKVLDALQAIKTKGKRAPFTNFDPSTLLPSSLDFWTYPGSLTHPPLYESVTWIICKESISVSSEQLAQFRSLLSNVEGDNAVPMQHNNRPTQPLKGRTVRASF
- method: stopped-flow CO2 hydration assay, phenol red
- Type: biochemical
assay-metric: Ki (nM)

Past entries and their recorded results:
molecule: Cc1cccc(CN(C)C(=N)Nc2ccc(S(N)(=O)=O)cc2)c1
unit-descriptor: nM
Ki: 1140

molecule: CC(NC(=N)Nc1ccc(S(N)(=O)=O)cc1)c1ccccc1 (centres unmarked)
unit-descriptor: nM
Ki: 1320

molecule: N=C(NCc1ccc(F)cc1)Nc1ccc(S(N)(=O)=O)cc1
unit-descriptor: nM
Ki: 989

[1] CCCCCCCCCCCCNC(=N)Nc1ccc(S(N)(=O)=O)cc1 [7m, 4–(3-Dodecylguanidino)benzenesulfonamide]
[2] N=C(Nc1ccc(S(N)(=O)=O)cc1)N(Cc1ccccc1)Cc1ccccc1
IN: Between item 1 and item 2 , which reported Ki is smaller? Answer by quoting the chosen item's label.
OUT: 1

----------
- assay-target: CA I (hCA I) (Homo sapiens)
- Construct: gene CA1; recombinant, obtained in-house as reported earlier
- method: stopped-flow CO2 hydration assay, phenol red
- Assay type: biochemical
assay-metric: Ki (nM)

molecule: Cc1cccc(CNC(=N)Nc2ccc(S(N)(=O)=O)cc2)c1
Ki, nM: 2930

molecule: CCCCCCCCNC(=N)Nc1ccc(S(N)(=O)=O)cc1 [7l, 4-(3-octylguanidino)benzenesulfonamide]
Ki, nM: 730

molecule: N=C(NCCOc1ccccc1)Nc1ccc(S(N)(=O)=O)cc1
Ki, nM: 4180

molecule: N=C(NCc1ccccc1F)Nc1ccc(S(N)(=O)=O)cc1
Ki, nM: 2990

molecule: Cc1ccccc1CNC(=N)Nc1ccc(S(N)(=O)=O)cc1
Ki, nM: 3160

[I] N=C(NCc1cccc(F)c1)Nc1ccc(S(N)(=O)=O)cc1
[II] N=C(Nc1ccc(S(N)(=O)=O)cc1)N1CCN(Cc2ccccc2)CC1
[III] CCCCCCCCCCCCCCCCNC(=N)Nc1ccc(S(N)(=O)=O)cc1
IN: Sort entries by Ki from minimum to maximum value. To answer, arrange all of the labels according to the requested order.
OUT: I, III, II

----------
- assay-target: CA VII (hCA VII) (Homo sapiens, UniProt P43166)
- Construct: gene CA7; recombinant, obtained in-house as reported earlier
- method: stopped-flow CO2 hydration assay, phenol red
- Type: biochemical
- Source text: stopped-flow CO2 hydration assay, phenol red on CA VII (hCA VII)
assay-metric: Ki (nM)

compound: Cc1cccc(CNC(=N)Nc2ccc(S(N)(=O)=O)cc2)c1
Ki, nM: 0.9

[P] N=C(NCc1ccccc1)Nc1ccc(S(N)(=O)=O)cc1 [7a, 4-(3-Benzyl-guanidino)benzenesulfonamide]
[Q] CCCCCCCCCCCCNC(=N)Nc1ccc(S(N)(=O)=O)cc1 [7m, 4–(3-Dodecylguanidino)benzenesulfonamide]
[R] Cc1ccccc1CNC(=N)Nc1ccc(S(N)(=O)=O)cc1
IN: Arrange items by their Ki values in increasing order. Write the labels in rank order as requested.
OUT: Q, R, P

----------
- assay-target: CA II (hCA II) (Homo sapiens, UniProt P00918)
- Construct: gene CA2; recombinant, obtained in-house as reported earlier
- method: stopped-flow CO2 hydration assay, phenol red
- Type: biochemical
assay-metric: Ki (nM)

molecule: N=C(NCc1ccc(F)cc1)Nc1ccc(S(N)(=O)=O)cc1
unit-descriptor: nM
Ki: 59.1
//
molecule: COc1ccc(CNC(=N)Nc2ccc(S(N)(=O)=O)cc2)cc1
unit-descriptor: nM
Ki: 17.7
//
molecule: N=C(Nc1ccc(S(N)(=O)=O)cc1)N(Cc1ccccc1)Cc1ccccc1
unit-descriptor: nM
Ki: 0.6
//
molecule: N=C(NCCOc1ccccc1)Nc1ccc(S(N)(=O)=O)cc1
unit-descriptor: nM
Ki: 6.9
//
molecule: N=C(Nc1ccc(S(N)(=O)=O)cc1)N1CCN(Cc2ccccc2)CC1
unit-descriptor: nM
Ki: 0.1
//
molecule: N=C(NCc1cccc(F)c1)Nc1ccc(S(N)(=O)=O)cc1
unit-descriptor: nM
Ki: 1.6
//
molecule: CCCCCCCCCCCCNC(=N)Nc1ccc(S(N)(=O)=O)cc1 [7m, 4–(3-Dodecylguanidino)benzenesulfonamide]
unit-descriptor: nM
Ki: 0.4
//
molecule: CC(NC(=N)Nc1ccc(S(N)(=O)=O)cc1)c1ccccc1 (stereo not drawn)
unit-descriptor: nM
Ki: 9.6
//
molecule: CCCCCCCCNC(=N)Nc1ccc(S(N)(=O)=O)cc1 [7l, 4-(3-octylguanidino)benzenesulfonamide]
unit-descriptor: nM
Ki: 0.9
//
molecule: Cc1cccc(CN(C)C(=N)Nc2ccc(S(N)(=O)=O)cc2)c1
unit-descriptor: nM
Ki: 0.08

[a] N=C(NCc1ccccc1F)Nc1ccc(S(N)(=O)=O)cc1
[b] Cc1ccccc1CNC(=N)Nc1ccc(S(N)(=O)=O)cc1
IN: Of a and b , which shows the smaller Ki value? Answer by stating the label of the chosen item.
OUT: b

[A] CCCCCCCCCCCCCCCCNC(=N)Nc1ccc(S(N)(=O)=O)cc1
[B] N=C(NCc1ccccc1)Nc1ccc(S(N)(=O)=O)cc1 [7a, 4-(3-Benzyl-guanidino)benzenesulfonamide]
IN: Which value of Ki is numerically greater: that of A or that of B ? Respond with the label that goes with your answer.
OUT: B
